Give inhibition at 10 µM for every item shown.
- subjectOfTest: panel of 203 kinases (Homo sapiens)
- Construct: purchased DiscoverX (KINOMEscan)
- procedureText: KINOMEscan competitive binding, whole panel
- details: 10 µM, n=1; kinase IGF1R; read-out: Percent inhibition IGF1R
Numbers only, in %.

For orientation, consider the following solved cases.
1) Fc1cccc(COc2ccc(Nc3ncnc4c3CN(CCN3CCOCC3)CC4)cc2Cl)c1
0
2) Cc1ccc(O)cc1Nc1ccnc(Nc2cccc(C(N)=O)c2)n1
0
3) COc1cc(Nc2nccc(-c3sc(N)nc3-c3cccc(NC(=O)c4c(F)cccc4F)c3)n2)cc(OC)c1OC
95.9
4) c1ccc(COc2cccc(-c3ccnc4[nH]ccc34)c2)cc1
0

Problem: Could you tell me which inhibition at 10 µM is on file for COc1ccc(Nc2nccc(-c3cnn4ncccc34)n2)cc1 ?
Solution: 98.1

====

- subjectOfTest: TRKC (Homo sapiens)
- Construct: purchased DiscoverX (KINOMEscan)
- Sequence (Q16288 32-839): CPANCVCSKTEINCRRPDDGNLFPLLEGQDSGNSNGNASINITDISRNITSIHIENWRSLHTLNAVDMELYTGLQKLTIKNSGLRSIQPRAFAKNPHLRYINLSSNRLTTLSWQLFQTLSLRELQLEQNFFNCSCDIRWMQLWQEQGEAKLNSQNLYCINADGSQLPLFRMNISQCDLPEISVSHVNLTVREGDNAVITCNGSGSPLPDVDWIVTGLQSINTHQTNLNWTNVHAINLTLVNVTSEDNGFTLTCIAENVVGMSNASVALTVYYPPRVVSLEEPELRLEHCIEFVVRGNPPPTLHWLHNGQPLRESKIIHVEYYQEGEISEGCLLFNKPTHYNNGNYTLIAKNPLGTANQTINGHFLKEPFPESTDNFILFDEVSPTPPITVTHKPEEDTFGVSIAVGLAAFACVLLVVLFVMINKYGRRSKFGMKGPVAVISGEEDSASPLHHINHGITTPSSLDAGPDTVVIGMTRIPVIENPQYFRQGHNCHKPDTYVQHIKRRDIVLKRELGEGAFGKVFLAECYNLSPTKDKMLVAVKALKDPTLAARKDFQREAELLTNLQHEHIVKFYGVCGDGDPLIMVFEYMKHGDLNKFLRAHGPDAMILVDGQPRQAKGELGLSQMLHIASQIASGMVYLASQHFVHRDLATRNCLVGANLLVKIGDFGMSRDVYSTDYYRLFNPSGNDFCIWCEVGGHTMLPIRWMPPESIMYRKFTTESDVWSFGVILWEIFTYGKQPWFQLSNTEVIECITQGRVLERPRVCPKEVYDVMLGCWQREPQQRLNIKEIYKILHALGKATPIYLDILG
- procedureText: KINOMEscan competitive binding
- details: n=1, read-out: Percent inhibition, TRKC
valueKind: inhibition at 10 µM (%)
Numbers only, in %.

1) Cc1ccc(O)cc1Nc1ccnc(Nc2cccc(C(N)=O)c2)n1 [Compound 3]
0
2) C[C@@H](Oc1cc(-c2cnc3ccccn23)sc1C(N)=O)c1ccccc1Cl [Compound 8]
0
3) Cc1ccc(O)cc1N(C)c1ccnc(Nc2cccc(S(N)(=O)=O)c2)n1 [Compound 4]
90
4) Nc1ncc2c(-c3ccncc3)c[nH]c2n1 [Compound 11]
0

Hi, could you look up inhibition at 10 µM for each item in my list?
1. Fc1cccc(COc2ccc(Nc3ncnc4c3CN(CCN3CCOCC3)CC4)cc2Cl)c1 [Compound 6]
2. CN1CCN(c2ccc(Nc3nccc(-c4cnn5ncccc45)n3)cc2C#N)CC1 [Compound 1]

Solution:
0
82.8

====

Give inhibition at 10 µM for every item shown.
- subjectOfTest: panel of 203 kinases (Homo sapiens)
- Construct: purchased DiscoverX (KINOMEscan)
- procedureText: KINOMEscan competitive binding, whole panel
- details: 10 µM, n=1; kinase AURKB; read-out: Percent inhibition AURKB
Numbers only, in %.

1. Fc1cccc(COc2ccc(Nc3ncnc4c3CN(CCN3CCOCC3)CC4)cc2Cl)c1 [Compound 6]
0
2. C[C@@H](Oc1cc(-c2cnc3ccccn23)sc1C(N)=O)c1ccccc1Cl [Compound 8]
87.3
3. Nc1ncc2c(-c3ccncc3)c[nH]c2n1 [Compound 11]
65.6
4. CN1CCN(c2ccc(Nc3nccc(-c4cnn5ncccc45)n3)cc2C#N)CC1 [Compound 1]
88.5
5. Cc1ccc(O)cc1Nc1ccnc(Nc2cccc(C(N)=O)c2)n1 [Compound 3]
82.8
6. COc1ccc(Nc2nccc(-c3cnn4ncccc34)n2)cc1 [Compound 2]
93.3

Hi, could you look up inhibition at 10 µM for each item in my list?
1. Clc1ccc(Nc2ncc(-c3ccccc3)s2)cc1 [Compound 10]
2. COc1cc(Nc2nccc(-c3sc(N)nc3-c3cccc(NC(=O)c4c(F)cccc4F)c3)n2)cc(OC)c1OC [Compound 7]
3. c1ccc(COc2cccc(-c3ccnc4[nH]ccc34)c2)cc1 [Compound 9]
4. Cc1ccc(O)cc1N(C)c1ccnc(Nc2cccc(S(N)(=O)=O)c2)n1 [Compound 4]

Solution:
1. 0
2. 100
3. 0
4. 79.5

====

Give inhibition at 10 µM for every item shown.
- subjectOfTest: panel of 203 kinases (Homo sapiens)
- Construct: purchased DiscoverX (KINOMEscan)
- procedureText: KINOMEscan competitive binding, whole panel
- details: 10 µM, n=1; kinase FGFR2; read-out: Percent inhibition FGFR2
The reply should read as a number followed by its unit.

1. CN1CCN(c2ccc(Nc3nccc(-c4cnn5ncccc45)n3)cc2C#N)CC1
70.1%
2. Cc1ccc(O)cc1N(C)c1ccnc(Nc2cccc(S(N)(=O)=O)c2)n1
0%
3. Clc1ccc(Nc2ncc(-c3ccccc3)s2)cc1
0%

// next entry
Problem: Please tell me: inhibition at 10 µM of COc1ccc(Nc2nccc(-c3cnn4ncccc34)n2)cc1 , system panel of 203 kinases (Homo sapiens)?
Solution: 0%
